# Plant response rating, Bluegrass annotations
# Tested on: annual bluegrass
# ASSAY_PROTOCOL: Test E pre-/postemergence herbicide test
# Format: in vivo, Poa annua
# EXPERIMENTAL_PARAMETERS: Preemergence, 125 g ai/ha; scale 0 to 100
# Protocol: […] At the same time, plants selected from these weed species were treated with postemergence applications of some of the test chemicals formulated in the same manner. […] Treated plants and controls were maintained in a greenhouse for 12 to 14 days, after which time all species were compared to controls and visually evaluated. […]
Respond using a number only.

| MOLECULE_SMILES | READOUT_LABEL | NUMERIC_VALUE |
| --- | --- | --- |
| CCn1nc(C(C)(C)C)cc1C(=O)Nc1cccc(C(N)=O)n1 | Plant response rating, Bluegrass | 100 |
| CCc1nn(C(C)(C)C)cc1C(=O)Nc1cc(C(=O)N(C)C)ccn1 | Plant response rating, Bluegrass | 95 |
| CCc1nn(C(C)(C)C)nc1C(=O)Nc1cccc(C(=O)N(C)CC)c1 | Plant response rating, Bluegrass | 75 |

[ask] // query Plant response rating, Bluegrass value for entry "Cc1nn(C(C)(C)C)nc1C(=O)Nc1cccc(C(=O)N2CC=CC2)c1"
[reply] 30

* * *

# Test system: large crabgrass
# ASSAY_PROTOCOL: Test E pre-/postemergence herbicide test
# Assay type: in vivo, Digitaria sanguinalis
# EXPERIMENTAL_PARAMETERS: Preemergence, 125 g ai/ha; scale 0 to 100
# Experimental: […] At the same time, plants selected from these weed species were treated with postemergence applications of some of the test chemicals formulated in the same manner. […] Treated plants and controls were maintained in a greenhouse for 12 to 14 days, after which time all species were compared to controls and visually evaluated. […]
# Plant response rating, Crabgrass, Large annotations

| COMPOUND | TESTED_SYSTEM | Plant response rating, Crabgrass, Large |
| --- | --- | --- |
| CCc1nn(C(C)(C)C)nc1C(=O)Nc1cccc(C(=O)N(C)CC)c1 [Compound 384] | large crabgrass | 100 |
| CCn1nc(C2(C)CC2)cc1C(=O)Nc1cc(C(=O)N(C)C)ccc1F [Compound 299] | large crabgrass | 100 |
| CCc1nn(C(C)(C)C)nc1C(=O)Nc1cccc(C(=S)N(C)C)c1 [Compound 395] | large crabgrass | 100 |
| CCn1nc(C(C)(C)C)cc1C(=O)Nc1cccc(C(N)=O)n1 [Compound 162] | large crabgrass | 90 |

Moving on to another compound below.
[ask] // query Plant response rating, Crabgrass, Large value for entry Cc1nn(C(C)(C)C)nc1C(=O)Nc1cccc(C(=O)N2CC=CC2)c1 [Compound 393]
[reply] 80

* * *

# System: rice
# ASSAY_PROTOCOL: Test B flooded paddy test
# Type: in vivo, Oryza sativa
# EXPERIMENTAL_PARAMETERS: 1000 g ai/ha, visual rating, scale 0 to 100 (0 no effect, 100 complete control), 13 to 15 days
READOUT_LABEL: Rice plant response rating

Look over these answered cases.
| COMPOUND | RESULT |
| --- | --- |
| CCN(CC)C(=O)c1cc(NC(=O)c2cc(C(C)(C)C)nn2CC)ccc1F [Compound 59] | 0 |
| CCn1nc(C(C)(C)C)cc1C(=O)Nc1cccc(C(N)=O)n1 [Compound 162] | 80 |
| CCON=C(C)c1cccc(NC(=O)c2cc(C(C)(C)C)nn2C)c1 [Compound 105] | 0 |
| C=Cn1nc(C(C)(C)C)cc1C(=O)Nc1cccc(C(C)=NO)c1 [Compound 114] | 50 |
| CCc1nc(C(C)(C)C)sc1C(=O)Nc1cccc(C(=O)NCC(C)C)c1 [Compound 211] | 20 |
| CCOC(=O)c1cc(NC(=O)c2cc(C(C)(C)C)nn2CC)ccc1OC [Compound 96] | 70 |
| CCn1nc(C(C)(C)C)cc1C(=O)Nc1nc(OC)cc(OC)n1 [Compound 166] | 0 |
| CC(C)NS(=O)(=O)c1cccc(NC(=O)c2cc(C(C)(C)C)nn2C)c1 [Compound 124] | 0 |

Moving on to another compound below.
[ask] Recorded Rice plant response rating for CCOC(=O)c1ccc(F)c(NC(=O)c2cc(C(C)C)nn2CC)c1 [Compound 73] with rice, please?
[reply] 50

The reported measurements were obtained from patent US20060069132A1.
